Reference for the values: patent US6620811B2

# Assayed System: human adenosine A2A receptor (Homo sapiens)
# Construct: expressed in transfected cells; host or cells: CHO cells, semliki forest virus expression system; membrane preparation
# Sequence (P29274 whole entry): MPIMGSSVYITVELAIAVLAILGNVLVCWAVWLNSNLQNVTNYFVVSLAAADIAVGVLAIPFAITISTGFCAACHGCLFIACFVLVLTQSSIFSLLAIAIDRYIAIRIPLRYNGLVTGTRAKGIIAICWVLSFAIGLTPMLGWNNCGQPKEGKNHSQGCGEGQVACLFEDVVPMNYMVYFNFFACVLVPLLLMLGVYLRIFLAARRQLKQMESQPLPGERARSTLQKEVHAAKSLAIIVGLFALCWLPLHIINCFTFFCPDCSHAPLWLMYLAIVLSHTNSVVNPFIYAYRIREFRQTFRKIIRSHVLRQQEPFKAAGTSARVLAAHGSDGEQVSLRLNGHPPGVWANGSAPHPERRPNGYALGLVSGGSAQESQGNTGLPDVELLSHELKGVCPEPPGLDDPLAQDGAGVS
# Experiment: Human adenosine A2A receptor [3H]-SCH-583261 binding assay (SPA, CHO cell membranes)
# Experimental Conditions: [3H]-SCH-583261 1 nM; membranes of CHO cells expressing the recombinant receptor; Ki by Cheng-Prussoff equation; read-out: hA2 (pKi) (converted)
Assay Readout: Ki (nM)

Previously resolved entries follow.
COc1ccc(N2CCOCC2)c2sc(NC(=O)c3ccnc(CNCCCC(=O)OC(C)(C)C)c3)nc12 [Example 62]    1.58
COc1ccc(N2CCOCC2)c2sc(NC(=O)c3ccnc(NCCNC(C)=O)c3)nc12 [Example 15]    1.91

I. COc1ccc(N2CCOCC2)c2sc(NC(=O)c3ccnc(N4C[C@@H]5C[C@H]4CO5)c3)nc12 [Example 31]
II. COc1ccc(N2CCOCC2)c2sc(NC(=O)c3ccnc(N4CCS(=O)(=O)CC4)c3)nc12 [Example 73]
## Input Compare reported Ki values for I and II . Which is lower? Kindly give the label for the entry you pick.
## Output I
